- System under test: Fibroblast growth factor receptor 1 (Homo sapiens, UniProt P11362)
- Test summary: Inhibition of full length FGFR1 (unknown origin) expressed in HEK293T cells using NanoBRET NanoGlo substrate incubated for 2 hrs in presence of K10 tracer by NanoBRET assay
- Format: cell-based
- Sequence (P11362 whole entry): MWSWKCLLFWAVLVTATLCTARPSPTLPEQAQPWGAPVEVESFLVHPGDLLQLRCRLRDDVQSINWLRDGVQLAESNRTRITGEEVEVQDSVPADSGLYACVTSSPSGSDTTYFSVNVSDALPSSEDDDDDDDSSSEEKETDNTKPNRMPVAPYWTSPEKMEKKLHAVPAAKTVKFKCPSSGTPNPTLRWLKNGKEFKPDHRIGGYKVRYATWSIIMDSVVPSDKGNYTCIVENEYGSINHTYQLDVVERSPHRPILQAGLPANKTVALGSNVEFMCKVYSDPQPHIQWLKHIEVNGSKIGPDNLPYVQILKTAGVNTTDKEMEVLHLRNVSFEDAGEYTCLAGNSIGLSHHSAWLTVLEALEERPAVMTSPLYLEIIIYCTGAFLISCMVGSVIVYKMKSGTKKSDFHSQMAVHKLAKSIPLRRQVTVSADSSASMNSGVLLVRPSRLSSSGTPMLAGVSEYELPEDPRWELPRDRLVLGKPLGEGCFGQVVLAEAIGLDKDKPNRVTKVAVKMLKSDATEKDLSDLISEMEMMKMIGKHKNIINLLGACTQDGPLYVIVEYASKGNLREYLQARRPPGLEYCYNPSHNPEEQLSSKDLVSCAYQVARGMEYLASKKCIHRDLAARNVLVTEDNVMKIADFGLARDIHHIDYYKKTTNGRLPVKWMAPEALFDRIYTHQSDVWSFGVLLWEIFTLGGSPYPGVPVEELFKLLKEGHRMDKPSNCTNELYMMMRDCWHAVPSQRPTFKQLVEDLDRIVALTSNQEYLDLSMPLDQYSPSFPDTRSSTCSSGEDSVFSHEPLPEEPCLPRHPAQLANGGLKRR
Property measured: EC50

// query # EC50 lookup, item O=C(Nc1ccccc1Cl)c1cnc2ccc(C3CCNCC3)cn12
// result > 50 µM

###

- System under test: Ephrin type-A receptor 7 (Homo sapiens) (UniProt Q15375)
- Sequence (Q15375 28-998 limits assumed): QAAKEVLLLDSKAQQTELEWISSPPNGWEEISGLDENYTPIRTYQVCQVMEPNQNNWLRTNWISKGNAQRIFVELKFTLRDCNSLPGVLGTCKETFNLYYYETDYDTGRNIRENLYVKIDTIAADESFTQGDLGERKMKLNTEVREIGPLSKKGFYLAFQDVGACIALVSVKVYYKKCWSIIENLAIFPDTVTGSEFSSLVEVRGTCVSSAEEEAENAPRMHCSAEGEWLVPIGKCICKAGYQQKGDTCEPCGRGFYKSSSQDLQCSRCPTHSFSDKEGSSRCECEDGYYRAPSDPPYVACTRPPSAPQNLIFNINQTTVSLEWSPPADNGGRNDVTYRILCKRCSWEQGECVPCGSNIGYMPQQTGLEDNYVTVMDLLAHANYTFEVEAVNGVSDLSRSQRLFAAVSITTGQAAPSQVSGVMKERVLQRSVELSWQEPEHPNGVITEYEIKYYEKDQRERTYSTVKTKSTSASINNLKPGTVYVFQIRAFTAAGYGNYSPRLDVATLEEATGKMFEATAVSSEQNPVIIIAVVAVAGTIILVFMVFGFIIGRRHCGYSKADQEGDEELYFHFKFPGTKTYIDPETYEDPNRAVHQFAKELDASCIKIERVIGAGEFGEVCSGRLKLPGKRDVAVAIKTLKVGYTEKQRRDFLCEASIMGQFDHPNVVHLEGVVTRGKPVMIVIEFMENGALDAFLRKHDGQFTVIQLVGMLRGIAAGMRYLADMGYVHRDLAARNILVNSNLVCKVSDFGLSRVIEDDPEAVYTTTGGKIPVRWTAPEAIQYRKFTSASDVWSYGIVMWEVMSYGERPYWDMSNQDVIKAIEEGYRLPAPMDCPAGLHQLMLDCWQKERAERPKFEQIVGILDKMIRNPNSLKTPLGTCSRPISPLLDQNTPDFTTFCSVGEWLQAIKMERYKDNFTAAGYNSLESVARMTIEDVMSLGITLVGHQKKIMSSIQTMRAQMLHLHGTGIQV
- Test summary: Induction of stabilization of recombinant EPHA7 (unknown origin) assessed as change in melting temperature by differential scanning fluorimetry assay
Decision: deltaTm compared against 0.7 K; not below it gives true (1), below it gives false (0).

Worked set:
Compound structure string	Classification
COc1cc(-c2cnc3nc2NCCCNS(=O)(=O)c2cc(ccc2OCCN2CCOCC2)N3)ccc1F	true (1)
O=S1(=O)NCCCNc2nc(ncc2-c2ccc(F)c(O)c2)Nc2cccc1c2	false (0)
COC(=O)c1ccc(-c2cnc3nc2NCCCNS(=O)(=O)c2cccc(c2)N3)cc1OC	false (0)
COc1cc(-c2cnc3nc2NCCCNS(=O)(=O)c2cc(ccc2Cl)N3)ccc1F	true (1)
O=S1(=O)NCCCNc2nc(ncc2-c2ccc(F)c(C(F)(F)F)c2)Nc2cccc1c2	true (1)
COC(=O)c1cc(-c2cnc3nc2NCCCNS(=O)(=O)c2cccc(c2)N3)ccc1F	false (0)
COc1cc(-c2cnc3nc2NCCCNS(=O)(=O)c2cccc(c2)N3)ccc1Br	false (0)

// query Check the entry CC(C)Oc1cc(-c2cnc3nc2NCCCNS(=O)(=O)c2cccc(c2)N3)ccc1F : does deltaTm equal or exceed 0.7 K?
// result false (0)

###

- System under test: Ephrin type-B receptor 3 (Homo sapiens)
- Test summary: Induction of stabilization of recombinant EPHB3 (unknown origin) assessed as change in melting temperature by differential scanning fluorimetry assay
Decision: deltaTm compared against 4 K; not below it gives Criterion met, below it gives Criterion not met.

Worked set:
Compound structure string	Classification
CSc1cc(-c2cnc3nc2NCCCNS(=O)(=O)c2cccc(c2)N3)ccc1F	Criterion met
COc1cc(-c2cnc3nc2NCCCNS(=O)(=O)c2cc(ccc2C)N3)ccc1F	Criterion met
COc1cc(-c2cnc3nc2NCCCNS(=O)(=O)c2cc(ccc2OCC(N)=O)N3)ccc1F	Criterion not met
CC(C)Oc1cc(-c2cnc3nc2NCCCNS(=O)(=O)c2cccc(c2)N3)ccc1F	Criterion not met
O=S1(=O)NCCCNc2nc(ncc2-c2cc(Cl)c(Cl)cc2F)Nc2cccc1c2	Criterion met

// query Check the entry COc1cc(-c2cnc3nc2NCCCNS(=O)(=O)c2cc(ccc2-c2ccc(O)cc2)N3)ccc1F : does deltaTm equal or exceed 4 K?
// result Criterion met

// query Continue with Cc1cc(Cl)c(Cl)cc1-c1cnc2nc1NCCCNS(=O)(=O)c1cccc(c1)N2
// result Criterion not met

// query Continue with O=S1(=O)NCCCNc2nc(ncc2-c2ccc(F)c(Cl)c2)Nc2cccc1c2
// result Criterion met

// query Continue with COc1cc(-c2cnc3nc2NCCCNS(=O)(=O)c2cc(ccc2OCCN2CCOCC2)N3)ccc1F
// result Criterion met

###

A set of molecules tested on Fibroblast growth factor receptor 2 (Homo sapiens) (UniProt P21802), with measured deltaTm:
Numbers only, in K.

Compound structure string	Scale unit	deltaTm
O=S1(=O)NCCCNc2nc(ncc2-c2ccc(Cl)c(Cl)c2)Nc2cccc1c2	K	3.9
COC(=O)c1ccc(-c2cnc3nc2NCCCNS(=O)(=O)c2cccc(c2)N3)cc1OC	K	1.8
COc1cc(-c2cnc3nc2NCCCNS(=O)(=O)c2cc(ccc2OCCN2CCOCC2)N3)ccc1F	K	3.2
Nc1cc(-c2cnc3nc2NCCCNS(=O)(=O)c2cccc(c2)N3)ccc1F	K	4.6
COc1cc(-c2cnc3nc2NCCCNS(=O)(=O)c2cc(ccc2Cl)N3)ccc1F	K	3.6
O=S1(=O)NCCCNc2nc(ncc2-c2ccc(F)c(C(F)(F)F)c2)Nc2cccc1c2	K	2.1
CC(C)Oc1cc(-c2cnc3nc2NCCCNS(=O)(=O)c2cccc(c2)N3)ccc1F	K	1.5

// query Record lookup: for Fibroblast growth factor receptor 2 (Homo sapiens) (UniProt P21802), what deltaTm belongs to Cc1cc(Cl)c(Cl)cc1-c1cnc2nc1NCCCNS(=O)(=O)c1cccc(c1)N2 ?
// result 3.6

###

Record form. Attribute: deltaTm. Fill in for each entry.
- System under test: Ephrin type-A receptor 7 (Homo sapiens) (UniProt Q15375)
- Test summary: Induction of stabilization of recombinant EPHA7 (unknown origin) assessed as change in melting temperature by differential scanning fluorimetry assay
One number for each entry, in K.

Below: 3 compounds and their reported deltaTm.
Compound structure string	Scale unit	Value observed
COc1ccc(-c2cnc3nc2NCCCNS(=O)(=O)c2cccc(c2)N3)cc1OC	K	0.8
COc1cc(-c2cnc3nc2NCCCNS(=O)(=O)c2cccc(c2)N3)c(F)cc1Cl	K	0.4
COc1cc(-c2cnc3nc2NCCCNS(=O)(=O)c2cc(ccc2C)N3)ccc1F	K	2

// query Record lookup: for Ephrin type-A receptor 7 (Homo sapiens) (UniProt Q15375), what deltaTm belongs to COc1cc(-c2cnc3nc2NCCCNS(=O)(=O)c2cccc(c2)N3)cc(F)c1F ?
// result -3.3

###

A set of compounds tested on Cyclin-G-associated kinase (Homo sapiens) (UniProt O14976), with measured deltaTm:
One number for each entry, in K.

Compound structure string	deltaTm [K]
CSc1cc(-c2cnc3nc2NCCCNS(=O)(=O)c2cccc(c2)N3)ccc1F	7.8
COC(=O)c1cc(-c2cnc3nc2NCCCNS(=O)(=O)c2cccc(c2)N3)ccc1F	-1.3
COc1cc(-c2cnc3nc2NCCCNS(=O)(=O)c2cccc(c2)N3)ccc1C#N	8.9
O=S1(=O)NCCCNc2nc(ncc2-c2ccc(F)c(O)c2)Nc2cccc1c2	6.4
COc1cc(-c2cnc3nc2NCCCNS(=O)(=O)c2cc(ccc2OCCN2CCOCC2)N3)ccc1F	9

Look at each compound and report its deltaTm.
1. COc1cc(-c2cnc3nc2NCCCNS(=O)(=O)c2cccc(c2)N3)c(F)cc1F
2. COc1cc(-c2cnc3nc2NCCCNS(=O)(=O)c2cc(ccc2O)N3)ccc1F
3. O=S1(=O)NCCCNc2nc(ncc2-c2cccc(Cl)c2F)Nc2cccc1c2

// result
1: 7.3; 2: 8; 3: 5.3

Look at each compound and report its deltaTm.
1. COc1cc(-c2cnc3nc2NCCCNS(=O)(=O)c2cccc(c2)N3)c(F)cc1Cl
2. COc1cc(-c2cnc3nc2NCCCNS(=O)(=O)c2cc(ccc2C)N3)ccc1F

// result
9.3
6.4

###

- System under test: Vascular endothelial growth factor receptor 1 (Homo sapiens)
- Sequence (P17948 whole entry): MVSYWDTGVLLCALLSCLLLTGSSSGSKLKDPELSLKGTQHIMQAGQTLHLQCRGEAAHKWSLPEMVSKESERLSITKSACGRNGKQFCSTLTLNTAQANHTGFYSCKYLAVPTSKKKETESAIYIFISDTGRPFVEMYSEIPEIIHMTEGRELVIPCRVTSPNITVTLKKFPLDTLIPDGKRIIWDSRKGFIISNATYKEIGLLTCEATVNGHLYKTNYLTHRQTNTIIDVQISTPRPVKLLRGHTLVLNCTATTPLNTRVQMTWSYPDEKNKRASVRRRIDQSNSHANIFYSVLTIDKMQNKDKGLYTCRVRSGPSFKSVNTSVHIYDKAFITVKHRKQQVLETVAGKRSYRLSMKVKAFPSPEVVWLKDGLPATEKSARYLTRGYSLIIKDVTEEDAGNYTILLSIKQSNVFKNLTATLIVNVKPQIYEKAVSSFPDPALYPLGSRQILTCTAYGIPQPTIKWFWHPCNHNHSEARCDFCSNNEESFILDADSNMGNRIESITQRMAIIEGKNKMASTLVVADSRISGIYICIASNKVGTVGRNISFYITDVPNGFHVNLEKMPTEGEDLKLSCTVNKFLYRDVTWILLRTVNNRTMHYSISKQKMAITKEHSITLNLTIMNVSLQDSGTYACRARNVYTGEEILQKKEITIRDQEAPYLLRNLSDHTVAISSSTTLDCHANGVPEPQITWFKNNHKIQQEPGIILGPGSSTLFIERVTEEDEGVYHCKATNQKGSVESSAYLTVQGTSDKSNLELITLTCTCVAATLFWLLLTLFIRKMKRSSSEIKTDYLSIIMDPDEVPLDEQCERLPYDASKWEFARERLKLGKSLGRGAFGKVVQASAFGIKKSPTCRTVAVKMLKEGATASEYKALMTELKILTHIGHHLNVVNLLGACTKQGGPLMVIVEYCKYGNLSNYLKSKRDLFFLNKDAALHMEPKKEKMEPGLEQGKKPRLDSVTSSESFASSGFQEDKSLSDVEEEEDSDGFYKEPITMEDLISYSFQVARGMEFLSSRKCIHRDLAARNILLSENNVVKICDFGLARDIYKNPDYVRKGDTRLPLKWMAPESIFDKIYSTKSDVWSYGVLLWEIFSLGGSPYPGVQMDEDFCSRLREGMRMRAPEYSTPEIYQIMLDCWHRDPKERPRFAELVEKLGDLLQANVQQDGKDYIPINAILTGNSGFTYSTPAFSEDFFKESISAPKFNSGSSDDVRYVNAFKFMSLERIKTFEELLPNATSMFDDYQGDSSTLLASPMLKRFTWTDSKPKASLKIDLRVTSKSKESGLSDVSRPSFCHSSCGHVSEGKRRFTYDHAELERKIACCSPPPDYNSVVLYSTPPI
- Test summary: Induction of stabilization of recombinant FLT1 (unknown origin) assessed as change in melting temperature by differential scanning fluorimetry assay
Property measured: deltaTm (K)
Give bare numbers, in K.

Compound structure string	Property measured	Scale unit	Value observed
COc1cc(-c2cnc3nc2NCCCNS(=O)(=O)c2cccc(c2)N3)cc(F)c1F	deltaTm	K	3

Look at each molecule and report its deltaTm.
1. O=S1(=O)NCCCNc2nc(ncc2-c2ccc(F)c(O)c2)Nc2cccc1c2
2. COc1cc(-c2cnc3nc2NCCCNS(=O)(=O)c2cccc(c2)N3)cc(OC)c1OC
3. O=S1(=O)NCCCNc2nc(ncc2-c2ccc(Cl)c(Cl)c2)Nc2cccc1c2
4. O=S1(=O)NCCCNc2nc(ncc2-c2cc(Cl)c(F)cc2F)Nc2cccc1c2

// result
[10.7, 0.7, 3.6, 4.3]

###

- System under test: Fibroblast growth factor receptor 1 (Homo sapiens)
Property measured: deltaTm (K)
Numbers only, in K.

Compound structure string	deltaTm [K]
O=S1(=O)NCCCNc2nc(ncc2-c2ccc(F)c(Cl)c2)Nc2cccc1c2	3.8
COc1cc(-c2cnc3nc2NCCCNS(=O)(=O)c2cc(ccc2OCCN2CCOCC2)N3)ccc1F	2.1
CSc1cc(-c2cnc3nc2NCCCNS(=O)(=O)c2cccc(c2)N3)ccc1F	3.3
COC(=O)c1ccc(-c2cnc3nc2NCCCNS(=O)(=O)c2cccc(c2)N3)cc1OC	0.6
CC(C)Oc1cc(-c2cnc3nc2NCCCNS(=O)(=O)c2cccc(c2)N3)ccc1F	1

Look at each molecule and report its deltaTm.
1. O=S1(=O)NCCCNc2nc(ncc2-c2cccc(Cl)c2F)Nc2cccc1c2
2. COc1ccc(-c2cnc3nc2NCCCNS(=O)(=O)c2cccc(c2)N3)cc1OC
3. COc1cc(-c2cnc3nc2NCCCNS(=O)(=O)c2cc(ccc2Cl)N3)ccc1F
4. COc1cc(-c2cnc3nc2NCCCNS(=O)(=O)c2cccc(c2)N3)ccc1Cl
5. COC(=O)c1cc(-c2cnc3nc2NCCCNS(=O)(=O)c2cccc(c2)N3)ccc1F

// result
1: 4; 2: 2.3; 3: 1.9; 4: 3.3; 5: 3.5

Look at each molecule and report its deltaTm.
1. COc1cc(-c2cnc3nc2NCCCNS(=O)(=O)c2cccc(c2)N3)ccc1C#N
2. COc1c(F)ccc(-c2cnc3nc2NCCCNS(=O)(=O)c2cccc(c2)N3)c1F
3. O=S1(=O)NCCCNc2nc(ncc2-c2cc(Cl)c(Cl)cc2F)Nc2cccc1c2

// result
[0, 5.2, 4.5]

// query # deltaTm lookup, item COc1cc(-c2cnc3nc2NCCCNS(=O)(=O)c2cc(ccc2OC)N3)ccc1F
// result 2
